Target: Escherichia coli biotin synthase (BioB), His6-BioB (Escherichia coli, UniProt P12996, N153S)
Assay: […] kDa centrifugal filtration binding assay, HPLC
pKd: −log10 of the molar value.

Compound	pKd
C[S+](CC[C@H](N)C(=O)O)C[C@H]1O[C@@H](n2cnc3c(N)ncnc32)[C@H](O)[C@@H]1O (some centres unmarked)	5.52
C[C@@H]1NC(=O)N[C@@H]1CCCCCC(=O)O	4.96
